// provenance: paper PMC11439338

target: mushroom tyrosinase (Agaricus bisporus, UniProt C7FF04)
Sequence (C7FF04 1-392): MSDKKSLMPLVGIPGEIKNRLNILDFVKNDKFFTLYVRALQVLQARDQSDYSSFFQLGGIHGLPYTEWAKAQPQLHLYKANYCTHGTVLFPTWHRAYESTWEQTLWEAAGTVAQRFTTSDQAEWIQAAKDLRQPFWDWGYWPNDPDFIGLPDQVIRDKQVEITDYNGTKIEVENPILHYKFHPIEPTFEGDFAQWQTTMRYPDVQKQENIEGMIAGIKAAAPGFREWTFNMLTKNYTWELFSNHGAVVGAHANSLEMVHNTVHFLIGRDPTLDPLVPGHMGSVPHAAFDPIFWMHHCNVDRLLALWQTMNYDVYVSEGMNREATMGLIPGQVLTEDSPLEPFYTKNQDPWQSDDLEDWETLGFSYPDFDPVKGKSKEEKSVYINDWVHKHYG
observable: Ki (µM)
Quick reminder: number only, in µM, skip the unit.

What value of Ki has been reported for the following molecule? CC1(C)CC(=O)C2=C(C1)OC(N)=C(C#N)C2c1ccc(OCc2ccc(C#N)cc2)cc1 (stereo not shown)
16.1
